Each entry below carries its recorded IC50.
- system: recombinant GST-LRRK2 (wild-type) (Homo sapiens (Human))
- Sequence (Q5S007 whole entry): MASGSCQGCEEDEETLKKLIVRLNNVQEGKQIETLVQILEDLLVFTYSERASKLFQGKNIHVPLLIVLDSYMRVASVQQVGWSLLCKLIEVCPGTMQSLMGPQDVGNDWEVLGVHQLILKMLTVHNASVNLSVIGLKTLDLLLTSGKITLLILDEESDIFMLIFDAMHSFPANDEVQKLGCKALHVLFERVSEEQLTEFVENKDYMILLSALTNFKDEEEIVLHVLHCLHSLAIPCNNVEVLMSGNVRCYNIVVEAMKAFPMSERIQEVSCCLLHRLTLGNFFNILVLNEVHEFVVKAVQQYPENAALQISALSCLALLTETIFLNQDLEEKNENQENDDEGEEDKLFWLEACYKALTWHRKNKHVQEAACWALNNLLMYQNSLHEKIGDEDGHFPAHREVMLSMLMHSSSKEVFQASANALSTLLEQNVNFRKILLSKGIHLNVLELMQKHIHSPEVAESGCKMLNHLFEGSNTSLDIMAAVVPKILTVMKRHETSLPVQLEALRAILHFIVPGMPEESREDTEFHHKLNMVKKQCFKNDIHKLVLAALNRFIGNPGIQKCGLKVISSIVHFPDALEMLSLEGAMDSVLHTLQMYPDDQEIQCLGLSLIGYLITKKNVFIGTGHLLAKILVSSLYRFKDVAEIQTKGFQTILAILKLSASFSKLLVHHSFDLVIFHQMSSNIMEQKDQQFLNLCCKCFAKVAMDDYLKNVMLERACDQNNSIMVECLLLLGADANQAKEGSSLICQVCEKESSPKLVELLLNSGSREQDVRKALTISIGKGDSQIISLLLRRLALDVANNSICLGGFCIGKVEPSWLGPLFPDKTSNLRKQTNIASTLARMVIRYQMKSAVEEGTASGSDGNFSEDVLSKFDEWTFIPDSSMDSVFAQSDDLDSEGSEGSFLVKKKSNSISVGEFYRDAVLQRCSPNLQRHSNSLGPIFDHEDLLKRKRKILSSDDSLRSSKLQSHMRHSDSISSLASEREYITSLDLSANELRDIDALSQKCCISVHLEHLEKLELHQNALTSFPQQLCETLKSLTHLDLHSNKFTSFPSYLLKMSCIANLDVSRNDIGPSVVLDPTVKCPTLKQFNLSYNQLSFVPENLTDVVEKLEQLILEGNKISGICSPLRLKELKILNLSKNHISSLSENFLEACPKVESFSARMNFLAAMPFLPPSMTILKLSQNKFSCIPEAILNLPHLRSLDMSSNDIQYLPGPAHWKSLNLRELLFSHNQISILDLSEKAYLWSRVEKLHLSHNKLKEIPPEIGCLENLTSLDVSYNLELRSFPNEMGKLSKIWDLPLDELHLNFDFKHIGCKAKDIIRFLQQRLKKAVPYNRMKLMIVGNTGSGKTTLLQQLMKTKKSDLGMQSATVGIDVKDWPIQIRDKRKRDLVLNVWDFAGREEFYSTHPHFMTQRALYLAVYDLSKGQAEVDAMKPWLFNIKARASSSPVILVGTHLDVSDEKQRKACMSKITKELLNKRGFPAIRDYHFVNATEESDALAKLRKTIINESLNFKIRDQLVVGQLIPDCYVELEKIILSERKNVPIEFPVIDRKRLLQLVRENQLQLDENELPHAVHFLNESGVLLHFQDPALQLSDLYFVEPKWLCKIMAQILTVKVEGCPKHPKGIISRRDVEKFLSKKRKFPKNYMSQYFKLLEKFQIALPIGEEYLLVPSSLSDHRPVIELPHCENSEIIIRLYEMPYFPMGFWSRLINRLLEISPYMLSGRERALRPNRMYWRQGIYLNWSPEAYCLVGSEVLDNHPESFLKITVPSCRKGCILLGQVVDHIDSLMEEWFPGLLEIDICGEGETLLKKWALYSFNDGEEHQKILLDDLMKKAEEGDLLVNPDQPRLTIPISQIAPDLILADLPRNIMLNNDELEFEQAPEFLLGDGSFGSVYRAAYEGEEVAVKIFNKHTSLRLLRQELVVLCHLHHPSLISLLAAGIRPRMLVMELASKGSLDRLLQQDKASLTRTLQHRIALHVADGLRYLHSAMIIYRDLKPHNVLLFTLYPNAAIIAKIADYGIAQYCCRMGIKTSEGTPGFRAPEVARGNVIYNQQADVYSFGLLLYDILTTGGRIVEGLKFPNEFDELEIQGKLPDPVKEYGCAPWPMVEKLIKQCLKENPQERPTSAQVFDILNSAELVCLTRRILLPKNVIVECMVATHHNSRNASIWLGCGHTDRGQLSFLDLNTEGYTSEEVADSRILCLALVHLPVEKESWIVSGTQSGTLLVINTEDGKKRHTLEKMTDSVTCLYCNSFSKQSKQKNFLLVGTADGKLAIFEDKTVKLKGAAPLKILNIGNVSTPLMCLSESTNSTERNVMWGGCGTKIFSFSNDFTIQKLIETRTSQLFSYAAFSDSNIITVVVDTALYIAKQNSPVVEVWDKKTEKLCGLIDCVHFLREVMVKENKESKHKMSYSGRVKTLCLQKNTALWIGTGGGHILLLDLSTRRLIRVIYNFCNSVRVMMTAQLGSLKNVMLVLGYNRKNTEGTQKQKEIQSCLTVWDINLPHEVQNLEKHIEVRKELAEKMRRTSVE
- assayOverview: LRRK2 TR-FRET peptide assay (in vitro kinase activity), wild-type
- Format: biochemical
- conditionSet: 100 μM ATP, 100 nM biotin-LRRKtide substrate, 10 nM kinase, 60 minutes at room temperature
Answer format: numeric, nM implied, no suffix.

{"compoundStructureString": "CS(=O)(=O)c1ccc(-c2ccc3c(NC4COC4)c(C(N)=O)nnc3c2)cc1", "system": "recombinant GST-LRRK2 (wild-type) (Homo sapiens (Human))", "readoutNumber": 180}
{"compoundStructureString": "CC(C)Nc1c(I)nnc2cc(-c3ccc(S(C)(=O)=O)cc3)ccc12", "system": "recombinant GST-LRRK2 (wild-type) (Homo sapiens (Human))", "readoutNumber": 950}
{"compoundStructureString": "CS(=O)(=O)c1ccc(-c2ccc3c(N)c(C(N)=O)nnc3c2)cc1", "system": "recombinant GST-LRRK2 (wild-type) (Homo sapiens (Human))", "readoutNumber": 140}
{"compoundStructureString": "COc1cc(-c2nccnc2OC)ccc1-c1ccc2c(N[C@H](C)C3CC3)c(C(N)=O)nnc2c1", "system": "recombinant GST-LRRK2 (wild-type) (Homo sapiens (Human))", "readoutNumber": 25}
{"compoundStructureString": "COc1ccc(C(=O)N(C)C)cc1-c1ccc2c(N[C@H](C)C3CC3)c(C(N)=O)nnc2c1", "system": "recombinant GST-LRRK2 (wild-type) (Homo sapiens (Human))", "readoutNumber": 48}
{"compoundStructureString": "CCC(CC)Nc1c(C(N)=O)nnc2cc(-c3ccncc3)ccc12", "system": "recombinant GST-LRRK2 (wild-type) (Homo sapiens (Human))", "readoutNumber": 26}

**Q:** # query: IC50 of entry `CNC(=O)c1nnc2cc(-c3ccc(S(C)(=O)=O)cc3)ccc2c1NC(C)C`
**A:** 410

**Q:** Try the compound `COc1ccccc1-c1ccc2c(NC(C)C)c(C(N)=O)nnc2c1`
**A:** 350

**Q:** Try the compound `NC(=O)c1nnc2cc(-c3cccc(N4CCOCC4)c3)ccc2c1N`
**A:** 120

**Q:** Try the compound `CN(C)c1ccc(-c2ccc3c(N)c(C(N)=O)nnc3c2)cc1`
**A:** 130

**Q:** Try the compound `C[C@@H](Nc1c(C(N)=O)nnc2cc(-c3ccc(N4CCOCC4=O)cc3)ccc12)C1CC1`
**A:** 10

**Q:** Try the compound `CC(C)Nc1c(-c2cccnc2)nnc2cc(-c3ccc(S(C)(=O)=O)cc3)ccc12`
**A:** 13000

**Q:** Try the compound `C[C@@H](Nc1c(C(N)=O)nnc2cc(-c3ccccc3S(C)(=O)=O)ccc12)C1CC1`
**A:** 430

**Q:** Try the compound `COc1ccc(S(C)(=O)=O)cc1-c1ccc2c(N[C@H](C)C3CC3)c(C(N)=O)nnc2c1`
**A:** 50

**Q:** Try the compound `C[C@@H](Nc1c(C(N)=O)nnc2cc(-c3cccc4c3NC(=O)C4)ccc12)C1CC1`
**A:** 2

**Q:** Try the compound `CS(=O)(=O)c1ccc(-c2ccc3c(NC4CC4)c(C(N)=O)nnc3c2)cc1`
**A:** 47

**Q:** Try the compound `CS(=O)(=O)c1ccc(-c2ccc3c(NC4CCOCC4)c(C(N)=O)nnc3c2)cc1`
**A:** 23

**Q:** Try the compound `COc1cccc(-c2ccc3c(NC(C)C)c(C(N)=O)nnc3c2)c1`
**A:** 46

**Q:** Try the compound `COc1ccc(N2CCOC2=O)cc1-c1ccc2c(N[C@H](C)C3CC3)c(C(N)=O)nnc2c1`
**A:** 54

**Q:** Try the compound `CC(C)Nc1c(C(N)=O)nnc2cc(-c3cnn(C)c3)ccc12`
**A:** 9

**Q:** Try the compound `COc1cc(N2CCOC2=O)ccc1-c1ccc(OC)c(-c2ccc3c(N[C@H](C)C4CC4)c(C(N)=O)nnc3c2)c1`
**A:** 1100

**Q:** Try the compound `COc1cc(Br)ccc1-c1ccc(OC)c(-c2ccc3c(N[C@H](C)C4CC4)c(C(N)=O)nnc3c2)c1`
**A:** 8700

**Q:** Try the compound `C[C@@H](Nc1c(C(N)=O)nnc2cc(-c3ccccc3OC(F)(F)F)ccc12)C1CC1`
**A:** 4300

**Q:** Try the compound `CC(C)Nc1c(C(N)=O)nnc2cc(Oc3ccccc3)ccc12`
**A:** 490

**Q:** Try the compound `CNc1c(C(N)=O)nnc2cc(-c3ccc(S(C)(=O)=O)cc3)ccc12`
**A:** 120

**Q:** Try the compound `COCc1ccccc1-c1ccc2c(N[C@H](C)C3CC3)c(C(N)=O)nnc2c1`
**A:** 330

**Q:** Try the compound `CC(C)Nc1c(C(N)=O)nnc2cc(-c3cccc(N4CCOCC4)c3)ccc12`
**A:** 17

**Q:** Try the compound `CC(C)Nc1c(C(N)=O)nnc2ccc(-c3ccccc3)cc12`
**A:** 630

**Q:** Try the compound `C[C@@H](Nc1c(C(N)=O)nnc2cc(-c3cncc4ccccc34)ccc12)C1CC1`
**A:** 380

**Q:** Try the compound `C[C@@H](Nc1c(C(N)=O)nnc2cc(-c3cnn(C)c3)ccc12)C1CC1`
**A:** 1
